Reference for the values: patent US20240317871A1

- target system: T1, His-tagged human HVEM (human, UniProt Q92956 39-202, limits assumed)
- T1 construct: Analyte of the BLI assay, 200 nM in PBS; not shown: His tag
- T1 sequence (looked up): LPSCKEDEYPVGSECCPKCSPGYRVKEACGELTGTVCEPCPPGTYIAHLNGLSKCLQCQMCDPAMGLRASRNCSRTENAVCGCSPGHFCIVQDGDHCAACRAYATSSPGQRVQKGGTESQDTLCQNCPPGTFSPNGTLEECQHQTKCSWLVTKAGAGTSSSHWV
- measurement protocol: BLI OctetRed96, mAb captured, 200 nM His-HVEM
metric name: koff (s⁻¹)
Only the number, expressed in s⁻¹, is required.

Incoming: # get_value(readout='koff', item= Ab_058 (H5S19-6A8A) (antibody, V domains shown, also called Ab_58) VH: EVQLVESGGGLVKPGGSLKLSCAASGFTFNIYTMSWVRQSPEMRLEWVAEISSGGSHTYYPDTVTGRFTISRDNAKNTLYLEMSSLRSEDTAIYYCARGGSLFDYWGQGTTLTVSS VL: DVQITQSPSYLAASPGETITINCRTSKNISKYLAWYQEKPGKTNKLLIYSGSTLQSGIPSRFSGSGSGTDFTLTISSLEPEDFVMYHCQQHNEYPWTFGGGTKLEIK )
Outgoing: 0.00125

Incoming: # get_value(readout='koff', item= Ab_052 (H5S19-18A17B) (antibody, V domains shown, also called Ab_52) VH: QVQLKESGPGLVAPSQSLSITCTVSGFSLTIYGVHWVRQPPGKGLEWLGVIWAGGIINYNSALMSRLSISKDNSKSQVFLKMNSLQSDDTAMYYCARDWERDSSGPFAYWGQGTLVTVSA VL: DIQMTQTTSSLSASLGDRVTISCSASQGISNYLNWYQQKPDGTVKLLIYYTSSLHSGVPSRFRGSGSGTDYSLTISNLEPEDIATYYCQQYSKLPWTFGGGTKLEIK )
Outgoing: 0.00734

Incoming: # get_value(readout='koff', item= Ab_036 (H5S15-12A13A) (antibody, V domains shown, also called Ab_36) VH: EVQLQQSGAELVKPGASVKLSCTASGFNIKDTYMHWVKQRPEQGLEWIGRIDPANGNTKFDPKFQGKATITADTSSNTAYLQLSSLTSEDTAVYYCASRGGSSFDYWGQGTTLTVSS VL: DIVLTQSPASLAVSLGQRATISCKASQSVDYDGESYMNWYQQKPGQPPKLLIYAASNLDSGIPARFSGSGSGTDFTLNIHPVEEEDAATYYCQQSNEDPLTFGAGTKLELK )
Outgoing: 0.0107

Incoming: # get_value(readout='koff', item= Ab_053 (H5S19-20A20A) (antibody, V domains shown, also called Ab_53) VH: QVQLKESGPGLVAPSQSLSITCTVSGFSLTSYGVHWVRQPPGKGLEWLGVIWAGGITNYNSALMSRLSISKDNSKSQVFLKMNSLQTDDTAMYYCARDWERDSSGPFVYWGQGTLVTVSA VL: DIQMTQTTSSLSASLGDRVTISCTASQGISNYLNWYQQKPDGTVKLLIYYTSTLHSGVPSRFSGSGSGTDYSLTISNLEPEDIATYYCQQYFKLPWTFGGGTKLEIK )
Outgoing: 0.00439

Incoming: # get_value(readout='koff', item= Ab_026 (H5S15-11A3B) (antibody, V domains shown, also called Ab_26) VH: EVQLQQSGADLVKPGASVKLSCTASGFNIKDTYMHWVKQRPEQGLEWIGRIAPANGRTKYDPKFQGKATITADTSSNTAYLQLSSLTSEDTAVYYCANYYASSYDWFAYWGQGTLVTVSA VL: DVLMTQTPLSLTVSLGHQASISCRSSQSIVHSNGNTYLEWYLQKPGQSPKLLIYKVSNRFSGVPDRFSGSGSGTDFTLKISRVEAEDLGVYYCFQGSHVPLTFGAGTKLELK )
Outgoing: 0.00864
